System: SNB-75 CNS
Test: NCI-60 one-dose screen, 48 h (100 = growth as untreated, 0 = no growth, -100 = all killed)
Details: 10 µM unless noted
Compounds without any hit were thinned out: in the full panel of roughly 83,000, 20% have a hit.
Quantity Name: growth (%)
The response must be a number in % with no trailing unit.

Please review the following examples before continuing.
# input compound: N#CC1c2ccccc2-c2ccccc2N1C(=O)c1ccccc1 (stereo not drawn) ; wanted: its growth
39.8

# query: growth of entry Nc1nc2c(c(=O)[nH]1)C(c1ccc3c(c1)OCO3)C=C(C(=O)O)N2 (stereo not drawn)
85.6

Query: growth; subject: O=C1/C(=C\C(Cl)=C/c2ccc([N+](=O)[O-])cc2)SC(=S)N1CCc1ccc(O)cc1
-27.7

Query: growth; subject: COc1ccc2nc(-c3cc(-c4cc(OC)c(OC)c(OC)c4)n[nH]3)[nH]c2c1
-2.76

Which growth is listed for Cn1c(=O)c2c(nc(N3CCCC3)n2C)n(C)c1=O ?
89.9

Further cases:
What measured growth goes with CCN1CCN(C(=O)[C@]23CCC(C)(C)C[C@H]2C2=CC[C@@H]4[C@@]5(C)CC/C(=N/O)C(C)(C)[C@@H]5CC[C@@]4(C)[C@]2(C)CC3)CC1 ?
59.3

Suppose we examine the compound COc1cc(C(=O)/C=C/c2cc(-c3ccc4c(c3)OCO4)n[nH]2)cc(OC)c1OC ; what growth value has been reported?
26.7

Look at this compound and give its reported growth. CCN1CCN(C(=O)[C@@]2(C)CC[C@]3(C)CC[C@]4(C)C(=CC(=O)[C@@H]5[C@@]6(C)CC[C@H](OCCC#N)C(C)(C)[C@@H]6CC[C@]54C)[C@@H]3C2)CC1
59.9
